# System under test: T1, Mu homology domain (MHD) of the AP-2 subunit mu (AP2M1 MHD) (human, UniProt Q96CW1 170-434)
# T1 sequence (looked up): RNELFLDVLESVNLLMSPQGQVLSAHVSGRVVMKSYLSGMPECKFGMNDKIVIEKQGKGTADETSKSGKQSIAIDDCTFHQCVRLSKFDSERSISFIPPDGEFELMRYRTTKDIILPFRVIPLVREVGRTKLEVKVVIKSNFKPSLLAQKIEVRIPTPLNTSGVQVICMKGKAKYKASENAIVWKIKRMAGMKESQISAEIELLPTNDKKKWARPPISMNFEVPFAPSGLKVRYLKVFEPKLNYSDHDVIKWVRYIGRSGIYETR
# Conditions used: both partners purified
Answer each item with its documented Kd.
Your answer should be a plain number; it is taken to be in µM.

[in] Which Kd value is on record for VNVGEQYQQLREAATE [NP 334-349 (ZEBOV)] ?
[out] 9.51

[in] Which Kd value is on record for EKKRGNYSRLDDRQVR [F 519-534 (HeV)] ?
[out] 14

[in] Which Kd value is on record for ANEIAAYALLADDLPP [N 124-139 (MuV)] ?
[out] 4

[in] Which Kd value is on record for NLNRVRYSKLDENGVY [Nsp4 75-90 (BAV)] ?
[out] 15.9

[in] Which Kd value is on record for WLPPPEYVPLHEISSK [M 32-47 (WCBV)] ?
[out] 12

[in] Which Kd value is on record for SIEELEYQRLVTSLSK [L 177-192 (OLVV)] ?
[out] 10.9
